Values from ChEMBL document CHEMBL2396544

// reported Ratio IC50 per item
# measurement description: Selectivity index, ratio of IC50 for ovine COX1 to IC50 for human recombinant COX2
property name: Ratio IC50

test_smiles=Cc1ccc(-c2cn(Cc3ccc(S(N)(=O)=O)cc3)nn2)cc1 assay_result="> 83"
test_smiles=Cc1ccc(-c2cn(-c3ccc(S(N)(=O)=O)cc3)nn2)cc1 assay_result=4.6
test_smiles=COc1ccc(-c2cn(-c3ccc(S(N)(=O)=O)cc3)nn2)cc1 assay_result="> 9.1"
test_smiles=COc1ccc(-c2cn(CCc3ccc(S(N)(=O)=O)cc3)nn2)cc1 assay_result="> 3.7"
test_smiles=NS(=O)(=O)c1ccc(Cn2cc(-c3ccc(Cl)cc3)nn2)cc1 assay_result="> 3.6"
test_smiles=NS(=O)(=O)c1ccc(CCn2cc(-c3ccc(F)cc3)nn2)cc1 assay_result="> 100"
test_smiles=NS(=O)(=O)c1ccc(Cn2cc(-c3ccccc3)nn2)cc1 assay_result=6
test_smiles=COc1ccc(-c2cn(Cc3ccc(S(N)(=O)=O)cc3)nn2)cc1 assay_result="> 7.7"
test_smiles=NS(=O)(=O)c1ccc(-n2cc(-c3ccc(F)cc3)nn2)cc1 assay_result="> 7.4"
test_smiles=NS(=O)(=O)c1ccc(CCn2cc(-c3ccc(Cl)cc3)nn2)cc1 assay_result="> 588"
test_smiles=NS(=O)(=O)c1ccc(Cn2cc(-c3ccc(F)cc3)nn2)cc1 assay_result=13.3
test_smiles=NS(=O)(=O)c1ccc(CCn2cc(-c3ccccc3)nn2)cc1 assay_result="> 91"
test_smiles=Cc1ccc(-c2cn(CCc3ccc(S(N)(=O)=O)cc3)nn2)cc1 assay_result="> 29"
test_smiles=NS(=O)(=O)c1ccc(-n2cc(-c3ccc(Cl)cc3)nn2)cc1 assay_result=16.1
test_smiles=NS(=O)(=O)c1ccc(-n2cc(-c3ccccc3)nn2)cc1 assay_result="> 77"

###

# study target: Prostaglandin G/H synthase 1 (Ovis aries, UniProt P05979)
# Sequence (P05979 whole entry): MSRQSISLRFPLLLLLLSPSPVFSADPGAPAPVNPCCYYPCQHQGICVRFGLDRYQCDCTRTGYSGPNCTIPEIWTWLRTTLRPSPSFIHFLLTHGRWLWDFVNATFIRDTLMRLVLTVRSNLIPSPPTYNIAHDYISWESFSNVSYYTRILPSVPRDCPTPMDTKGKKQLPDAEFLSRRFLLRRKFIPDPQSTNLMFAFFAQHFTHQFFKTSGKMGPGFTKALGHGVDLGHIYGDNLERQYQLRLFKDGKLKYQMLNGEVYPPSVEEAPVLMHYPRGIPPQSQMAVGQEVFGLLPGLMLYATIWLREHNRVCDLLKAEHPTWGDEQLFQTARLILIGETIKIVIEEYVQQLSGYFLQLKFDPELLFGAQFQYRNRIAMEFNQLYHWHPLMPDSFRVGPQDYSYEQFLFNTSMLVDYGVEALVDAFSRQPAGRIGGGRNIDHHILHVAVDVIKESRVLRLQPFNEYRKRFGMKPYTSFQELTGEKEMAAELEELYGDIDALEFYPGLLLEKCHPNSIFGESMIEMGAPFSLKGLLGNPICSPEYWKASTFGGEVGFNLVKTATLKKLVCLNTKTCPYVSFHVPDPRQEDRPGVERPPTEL
property name: IC50

test_smiles=COc1ccc(-c2cn(CCc3ccc(S(N)(=O)=O)cc3)nn2)cc1 assay_result="> 100 µM"
test_smiles=Cc1ccc(-c2cn(-c3ccc(S(N)(=O)=O)cc3)nn2)cc1 assay_result="65 µM"
test_smiles=NS(=O)(=O)c1ccc(Cn2cc(-c3ccc(Cl)cc3)nn2)cc1 assay_result="> 100 µM"
test_smiles=NS(=O)(=O)c1ccc(Cn2cc(-c3ccccc3)nn2)cc1 assay_result="39 µM"
test_smiles=Cc1ccc(-c2cn(Cc3ccc(S(N)(=O)=O)cc3)nn2)cc1 assay_result="> 100 µM"
test_smiles=COc1ccc(-c2cn(Cc3ccc(S(N)(=O)=O)cc3)nn2)cc1 assay_result="> 100 µM"
test_smiles=Cc1ccc(-c2cn(CCc3ccc(S(N)(=O)=O)cc3)nn2)cc1 assay_result="> 100 µM"
test_smiles=NS(=O)(=O)c1ccc(Cn2cc(-c3ccc(F)cc3)nn2)cc1 assay_result="20 µM"
test_smiles=NS(=O)(=O)c1ccc(-n2cc(-c3ccccc3)nn2)cc1 assay_result="> 100 µM"
test_smiles=NS(=O)(=O)c1ccc(-n2cc(-c3ccc(F)cc3)nn2)cc1 assay_result="> 100 µM"
